FYI, the data here is from paper PMC11354720.

Test system: proteases in Pelophylax esculentus skin secretion
Assay type: in vitro ADME
Conditions: sample 4: PMSF 0.1 mM (in DMSO); sum of all proteolytic forms; LC-HRMS; all forms = 100%
Bridges are numbered along the chain shown (N, C = ends). Where no end group is shown, it is not given here.
The substances listed here are annotated with their Proteoforms, %.
ATTRIBUTE_MEASURED: Proteoforms, % (%)

>>> observed("GXLSTLKNVAKTAGKGALQSLLNAASCKLSGQC-OH (disulfide) [Brev 2L, Brevinin 2L, natural disulfide skin peptide of Pelophylax esculentus, brevinin 2 family, 33 aa]")
99.64
>>> observed("GXLDSLKNFAKDAAGILLKKASCKLSGQC-OH (disulfide) [Brev 2Ra, Brevinin 2Ra, natural disulfide skin peptide of Pelophylax esculentus, brevinin 2 family, 29 aa]")
88.21
>>> observed("GIFSKLGRKKIKNLLISGLKNVGKEVGMDVVRTGIDIAGCKIKGEC (disulfide 40-46) [Escul 1, Esculentin 1]")
94.40
>>> observed("FFPAFLKVAAKVVPSXXCSITKKC-OH (disulfide) [Brev 1LE, Brevinin 1LE, natural disulfide skin peptide of Pelophylax esculentus, brevinin 1 family, 24 aa]")
92.73
>>> observed("GXFSKXAGKKXKNLXISGXKSVGKEVGMDVVRTGIDIAGCKIKGEC-OH (disulfide) [Escul 1R, Esculentin 1R, natural disulfide skin peptide of Pelophylax esculentus, esculentin 1 family, 46 aa]")
97.33
>>> observed("GXLDSLKNLAKNAAQILLNKASCKLSGQC-OH (disulfide) [Brev 2Rd, Brevinin 2Rd, natural disulfide skin peptide of Pelophylax esculentus, brevinin 2 family, 29 aa]")
98.45
